target: T1, human GHS-R1a receptor (growth hormone secretagogue receptor 1a) (human, UniProt Q92847 1-366); assay: competitive displacement of 125I-ghrelin, membranes of HEK293T cells with transfected human GHS-R1a
T1 construct: whole, on cells; Functional assays: HEK-293T cells transiently transfected with human GHS-R1a; also called ghrelin receptor
T1 sequence (Q92847 whole entry): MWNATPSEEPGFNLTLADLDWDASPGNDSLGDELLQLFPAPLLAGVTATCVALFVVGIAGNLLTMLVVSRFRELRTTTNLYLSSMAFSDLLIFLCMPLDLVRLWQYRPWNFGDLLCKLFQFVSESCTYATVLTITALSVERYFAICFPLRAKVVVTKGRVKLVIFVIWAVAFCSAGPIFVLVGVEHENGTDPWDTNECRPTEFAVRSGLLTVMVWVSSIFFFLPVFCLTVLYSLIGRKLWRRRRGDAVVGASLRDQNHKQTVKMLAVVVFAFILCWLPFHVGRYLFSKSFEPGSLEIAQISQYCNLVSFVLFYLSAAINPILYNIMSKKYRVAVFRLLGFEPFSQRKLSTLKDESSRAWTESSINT
Non-standard residues stand in square brackets, D forms with d. No end group written: not given here. *: point of attachment. Palmitoyl = CCCCCCCCCCCCCCCC(=O)*; Myristoyl = CCCCCCCCCCCCCC(=O)*; Decanoyl = CCCCCCCCCC(=O)*; Dap = NC[C@H](N)C(=O)O; Sar = CNCC(=O)O
Experimental readout: pKi
pKi here: minus log base 10 of the concentration, concentration in moles per litre.

Prompt: Report pKi for XSXXLSPEHQKAQQRKESKKPPAKLQPR (sarcosine (Sar) at position 1; diaminopropionic acid N-myristoyl (Dpr-N-myr) at position 3; 1-naphtylalanine (1-Nal) at position 4, Synthetic ghrelin analog) [ghrelin analog no. 4, (Sar)S(Dpr-N-myr)(1-Nal)LSPEHQKAQQRKESKKPPAKLQPR] please.
Response: 8.70

Prompt: Which pKi value is on record for XSXFLSPEHQKAQQRKESKKPPAKLQPR (sarcosine (Sar) at position 1; diaminopropionic acid N-octanoyl (Dpr-N-oct) at position 3; Lys 24 N-palmitoyl (K(N-palm)), Synthetic ghrelin analog) [ghrelin analog no. 7, (Sar)S(Dpr-N-oct)FLSPEHQKAQQRKESKKPPAK(N-palm)LQPR] ?
Response: 8.22

Prompt: Which pKi reading was recorded for the binder [Sar]S[Dap](Decanoyl)FLSPEHQKAQQRK(Palmitoyl)ES [ghrelin analog no. 15, (Sar)S(Dpr-N-dec)FLSPEHQKAQQRK(N-palm)ES] ?
Response: 8.22

Prompt: Find the recorded pKi belonging to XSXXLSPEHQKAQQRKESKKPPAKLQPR (sarcosine (Sar) at position 1; diaminopropionic acid N-decanoyl (Dpr-N-dec) at position 3; 1-naphtylalanine (1-Nal) at position 4, Synthetic ghrelin analog) [ghrelin analog no. 3, (Sar)S(Dpr-N-dec)(1-Nal)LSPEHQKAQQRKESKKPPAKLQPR] and report it.
Response: 9.19

Prompt: Returns the measured pKi for the input binder. Input: [Sar]S[Dap](Myristoyl)FLSPEHQKAQQRKES [ghrelin analog no. 18, (Sar)S(Dpr-N-myr)FLSPEHQKAQQRKES]
Response: 8.47

Prompt: Which value of pKi has been reported for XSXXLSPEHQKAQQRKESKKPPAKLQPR (not fully specified; sarcosine (Sar) at position 1; diaminopropionic acid N-myristoyl (Dpr-N-myr) at position 3; dichlorophenylalanine (PheCl2) at position 4, Synthetic ghrelin analog; also called analog 14) [ghrelin analog no. 14, (Sar)S(Dpr-N-myr)(PheCl2)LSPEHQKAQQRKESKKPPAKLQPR] in the records?
Response: 7.77

Prompt: Which pKi is listed for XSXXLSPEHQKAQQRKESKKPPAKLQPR (not fully specified; sarcosine (Sar) at position 1; diaminopropionic acid N-octanoyl (Dpr-N-oct) at position 3; dichlorophenylalanine (PheCl2) at position 4, Synthetic ghrelin analog) [ghrelin analog no. 13, (Sar)S(Dpr-N-oct)(PheCl2)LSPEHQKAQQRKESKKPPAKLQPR] ?
Response: 8.61
